Attribute: PBM binding z-score
# System: PPARg:RXRa (NR concentration 180 nM, RXRa partner concentration 90 nM)
# ASSAY_PROCEDURE: PBM binding z-score (relative to random genomic background probes); higher = stronger binding; sequences stand for … in GC…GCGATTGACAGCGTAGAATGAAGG
Just the number, please, no unit after it.

Known PBM binding z-score results, listed for orientation:
TAGCCTAGGTCATGCGGGCCGGTATAGTGTCGGC : 1.89
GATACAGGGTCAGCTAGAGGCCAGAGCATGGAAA : 3.81
CCAACTAGGTCAAGGTCAAAGTCGGTTTGTGCCA : 9.18

Next sequence, PBM binding z-score to be filled in.
(Q) Identify measured PBM binding z-score associated with `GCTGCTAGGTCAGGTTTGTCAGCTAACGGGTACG`
(A) 0.265

###

# System: RARg homodimer (NR concentration 270 nM)
# ASSAY_PROCEDURE: PBM binding z-score (relative to random genomic background probes); higher = stronger binding; sequences stand for … in GC…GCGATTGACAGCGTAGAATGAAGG
READOUT_TYPE: PBM binding z-score
Please reply with the value in numeric form only.

Example sequences with recorded PBM binding z-score:
CCTAGCAGGCCAATCTCGGTCACTCAAGGCTTGA : 1.24
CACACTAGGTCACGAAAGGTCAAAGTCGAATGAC : 8.87
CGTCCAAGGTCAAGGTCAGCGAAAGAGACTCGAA : 7.94
TCCTATAGGTAATACAGGTGAAAGTCGGCATCTA : 0.243
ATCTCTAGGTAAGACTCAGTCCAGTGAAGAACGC : 0.132
CCTACTGGGCCATTCAGAGGTCCTTGATCATATG : -0.184
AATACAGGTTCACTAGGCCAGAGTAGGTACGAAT : 1.4
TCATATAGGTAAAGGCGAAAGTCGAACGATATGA : 0.439
TGGATGAGGTTATAAGATCAGGGAACGTTGCAAA : 1.24
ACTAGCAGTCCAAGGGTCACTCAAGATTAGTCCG : 3.27

(Q) Output measured PBM binding z-score for this item: `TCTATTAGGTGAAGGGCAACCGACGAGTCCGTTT`
(A) 1.35

(Q) Retrieve PBM binding z-score measured for `CCTACTGGGCCAAGAAGGTCATTGATGCCGATAA` and print it.
(A) 2.39

###

# Tested on: RARb:RXRa (NR concentration 270 nM, RXRa partner concentration 90 nM)
# ASSAY_PROCEDURE: PBM binding z-score (relative to random genomic background probes); higher = stronger binding; sequences stand for … in GC…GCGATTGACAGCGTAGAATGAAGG
READOUT_TYPE: PBM binding z-score
Please reply with the number alone, leaving off any unit.

Here is how some sequences turned out for PBM binding z-score.
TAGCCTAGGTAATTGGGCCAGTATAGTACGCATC : -0.455
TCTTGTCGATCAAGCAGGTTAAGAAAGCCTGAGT : 0.222
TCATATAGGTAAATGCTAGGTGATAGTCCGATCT : 0.301

(Q) Dear colleague, please send me the reported PBM binding z-score for `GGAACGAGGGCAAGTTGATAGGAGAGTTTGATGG` when you can.
(A) 2.63

(Q) Tell me PBM binding z-score reported for `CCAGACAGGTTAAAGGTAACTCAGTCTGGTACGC`
(A) 1.69

(Q) Please look at this sequence and report its PBM binding z-score: `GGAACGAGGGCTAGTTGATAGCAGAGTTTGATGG`
(A) -0.19

(Q) Specify PBM binding z-score for `TCATATAGGTAGAGGTGAAAGTCGAACGATATGA` and stop.
(A) 1.31

(Q) // Input: `AGAATGAGGTTATACGAAGATCAGGGAAGAAAGT` . Output its PBM binding z-score only.
(A) 1.3

(Q) Indicate its recorded PBM binding z-score; the sequence in question is `TGTCAAAGTTCAAAGGTAAAGTAAGTATCCACAC`
(A) 5.07

(Q) Give a short answer stating reported PBM binding z-score for `TAGCCTAGGTCATGGGCCAGTATTCCACGCGAAC` .
(A) 3.78

(Q) Read off the recorded PBM binding z-score for `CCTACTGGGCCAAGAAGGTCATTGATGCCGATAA`
(A) 2.76

(Q) Indicate the recorded PBM binding z-score value for this sequence: `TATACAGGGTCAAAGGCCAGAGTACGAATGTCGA`
(A) 4.5

###

Measured PBM binding z-score by item
# Tested on: PXR homodimer (NR concentration 270 nM)
# ASSAY_PROCEDURE: PBM binding z-score (relative to random genomic background probes); higher = stronger binding; sequences stand for … in GC…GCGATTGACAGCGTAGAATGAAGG
Enter the number alone.

Illustrative cases are given below, each with its answer.
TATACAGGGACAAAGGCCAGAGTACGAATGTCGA : 0.479
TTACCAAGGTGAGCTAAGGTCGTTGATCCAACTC : 0.308
TCTTGTAGAACAAGCAGGTTAAGAAAGCCTGAGT : 0.0921

(Q) State, in one line, measured PBM binding z-score of `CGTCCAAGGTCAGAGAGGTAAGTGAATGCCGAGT`
(A) 1.46

(Q) Return the recorded PBM binding z-score value; entry: `ACTTACGGGTCAACGAGGTAATAGCACGCGTATA`
(A) 0.484

(Q) Answer with reported PBM binding z-score of `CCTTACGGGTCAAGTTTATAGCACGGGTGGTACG`
(A) 0.698

###

# Test system: PPARg:RXRa 30nM:10nM, anti-RXR (NR concentration 30 nM, RXRa partner concentration 10 nM)
# ASSAY_PROCEDURE: PBM binding z-score (relative to random genomic background probes); higher = stronger binding; sequences stand for … in GC…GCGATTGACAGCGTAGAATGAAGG
Tag: 1 (yes) if measured PBM binding z-score is not below 0.3, 0 (no) if it is.

(Q) Please check the record `TTACCAAGGTGATCTGAGGTCGTTGATCCAACTC` and state if its PBM binding z-score is at or above 0.3.
(A) 0 (no)

(Q) Identify whether the reported PBM binding z-score of the following sequence is 0.3 or greater: `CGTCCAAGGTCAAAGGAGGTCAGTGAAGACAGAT`
(A) 1 (yes)

(Q) Tell me whether PBM binding z-score is at least 0.3 here: `TTACCATGGTGAGCTGAGGTCGTTGATCCAACTC`
(A) 0 (no)

(Q) Record `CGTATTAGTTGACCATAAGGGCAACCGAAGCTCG` ; criterion: PBM binding z-score no lower than 0.3. Met?
(A) 0 (no)

(Q) Record `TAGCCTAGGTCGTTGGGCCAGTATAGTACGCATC` ; criterion: PBM binding z-score no lower than 0.3. Met?
(A) 0 (no)

(Q) Test whether the sequence `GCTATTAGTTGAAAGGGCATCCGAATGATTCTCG` records PBM binding z-score of 0.3 or higher.
(A) 1 (yes)

(Q) Assess whether reported PBM binding z-score for `ACAGACACGTGAGTGAAGGTAACTCAGCTGGACG` sits at 0.3 or higher.
(A) 0 (no)

(Q) For this sequence, is measured PBM binding z-score 0.3 or higher? `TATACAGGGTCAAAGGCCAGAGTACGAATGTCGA`
(A) 1 (yes)

(Q) Please indicate if the recorded PBM binding z-score for `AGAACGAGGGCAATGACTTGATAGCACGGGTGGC` meets or exceeds 0.3.
(A) 0 (no)

(Q) Please check the record `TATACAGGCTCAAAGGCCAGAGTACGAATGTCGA` and state if its PBM binding z-score is at or above 0.3.
(A) 1 (yes)

(Q) Is PBM binding z-score at least 0.3? Consider `TCGAGTAGGTTAGGGGCATTTAGAATGGCGTCGA`
(A) 1 (yes)

(Q) Threshold query (PBM binding z-score >= 0.3) on `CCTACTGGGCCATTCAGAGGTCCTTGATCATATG`
(A) 0 (no)

(Q) Please indicate if the recorded PBM binding z-score for `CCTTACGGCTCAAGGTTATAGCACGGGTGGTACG` meets or exceeds 0.3.
(A) 1 (yes)

(Q) Hi, just wondering whether `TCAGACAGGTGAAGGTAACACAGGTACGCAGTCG` shows PBM binding z-score of 0.3 or higher.
(A) 1 (yes)

(Q) hey, is PBM binding z-score for this one >= 0.3? `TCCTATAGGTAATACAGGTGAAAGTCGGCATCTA`
(A) 1 (yes)

(Q) Textbook exercise: given the entry `CAGCCTAGGTCAAGGCCAGTATAGGAGGAACGTT` , state whether its PBM binding z-score is greater than or equal to 0.3.
(A) 1 (yes)

###

# Test system: RXRa DBDmut IVT, anti-RXR (DBD mutation: RXRa K156A/R161A, NR concentration 90 nM)
# ASSAY_PROCEDURE: PBM binding z-score (relative to random genomic background probes); higher = stronger binding; sequences stand for … in GC…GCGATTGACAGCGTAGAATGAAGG
The following sequences are shown together with reported PBM binding z-score values.
Respond using a number only.

CAAACTAGGTCCCAGAGGTCAAAGTCCGTGCGTA : 2.04
TAGCCTAGGTCGGATCGGGCCAGTATACGCTATA : -1.2

(Q) Read off the recorded PBM binding z-score for `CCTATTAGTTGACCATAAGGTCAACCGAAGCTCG`
(A) 1.77

(Q) // fetch PBM binding z-score given entry `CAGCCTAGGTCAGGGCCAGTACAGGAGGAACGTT`
(A) -0.352

(Q) Dear colleague, please send me the reported PBM binding z-score for `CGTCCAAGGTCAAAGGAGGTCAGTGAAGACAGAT` when you can.
(A) 3.52
